# Curve Class per entry
biological target: CIB1 and αIIb interaction (CIB1-GST : F-αIIb peptide) (Homo sapiens); construct: made in house; host or cells: BL-21 plus RIL cells (E. coli); experiment: FP assay, 1536-well qHTS format (primary and confirmatory screen); assay type: binding; settings: qHTS primary screen hits, Table S2; negative sign = inhibitory curve; several classes where COUNT > 1
OBSERVATION TYPE: Curve Class

>>> df
                                   compound  measured
0  COc1ccc(-n2ncc3c2CCCC3NC(=O)c2ccccc2Cl)cc1.O=C(O)C(F)(F)F (centres unmarked)      -2.4
1  Cc1cnc(-c2ccccc2C(C)C)nc1NCc1ccc(-c2ccc(F)nc2)cc1.O=C(O)C(F)(F)F      -2.4
2  CC(C)(O)CCc1ccc(OCc2cc(-c3cccc(OC(F)F)c3)c3ncccc3c2)cc1      -2.2
3  O=C(Nc1nc(-c2ccccc2)cs1)c1ccncc1NS(=O)(=O)c1ccc(F)c(F)c1.O=C(O)C(F)(F)F        -3
4  Cc1c2c(=O)n(-c3ccccc3)[nH]c2cc(=O)n1Cc1ccco1.O=C(O)C(F)(F)F      -2.4
5  Cc1cc(NS(=O)(=O)c2ccc(NC(=O)Cc3cccc4ccccc34)cc2)no1.O=C(O)C(F)(F)F      -1.4
6  CSC(Cc1ccc(Cl)cc1)C(=O)Nc1ccc(Cl)cc1C(=O)O.O=C(O)C(F)(F)F (centres unmarked)      -2.4
7                      Nc1ccc(O)c(C(=O)O)c1      -2.2

----------
target: CIB1 and αIIb interaction (CIB1-GST : F-αIIb peptide) (Homo sapiens, UniProt Q99828); construct: made in house; host or cells: BL-21 plus RIL cells (E. coli); assay: FP assay, 1536-well qHTS format (primary and confirmatory screen); assay type: binding; conditions: qHTS primary screen hits, Table S2; read-out: IC50
pIC50: −log10 of the molar value.
# pIC50 per entry
OBSERVATION TYPE: pIC50

>>> print(df.to_string())
                                   molecule  measured
0  Cc1cnc(-c2ccccc2C(C)C)nc1NC(C)c1ccc(-c2cccnc2)cc1.O=C(O)C(F)(F)F (stereo not shown) [NCGC00253889-01]      4.25
1  Cc1ccc(C(=O)NC(c2ccco2)c2cc(Cl)c3cccnc3c2O)cc1 (stereo not shown) [NCGC00188372-01]      4.50
2  O=C1c2ccccc2C(=O)c2c(NCCc3ccc(O)cc3)ccc(NCCc3ccc(O)cc3)c21 [NCGC00186017-01]      4.50
3  CCC(=O)NC(c1cccs1)c1ccc2cccnc2c1O (stereo not shown) [NCGC00182903-03]      4.30

----------
biological target: CIB1 and αIIb interaction (CIB1-GST : F-αIIb peptide) (Homo sapiens, UniProt Q99828); construct: made in house; host or cells: BL-21 plus RIL cells (E. coli); assay: FP assay, 1536-well qHTS format (primary and confirmatory screen); type: binding; conditions: qHTS primary screen hits, Table S2; read-out: IC50
OBSERVATION TYPE: log10(IC50) (log10 of the value in µM)

>>> print(df.to_string())
                                   compound  observation_type  measured
0  O=C(O)C(F)(F)F.O=C(c1ccc(-c2cc(O)c3ncccc3c2)cc1)N1CCNCC1       log10(IC50)      1.60
1  CC(C)NCC(O)c1cc(O)cc(O)c1.CC(C)NCC(O)c1cc(O)cc(O)c1.O=S(=O)(O)O (stereo not shown)       log10(IC50)      1.75
2  CN(C)c1ccc(NC(=S)N/N=C2\C(=O)Nc3ccccc32)cc1.O=C(O)C(F)(F)F       log10(IC50)      0.54
3  O=C(NC1=CC(=O)c2ccccc2C1=O)c1ccccc1.O=C(O)C(F)(F)F       log10(IC50)      1.40
4  O=C(O)C(F)(F)F.O=C1CCCC2=C1C(c1ccncc1)N=C(Nc1nc3ccccc3o1)N2 (stereo not shown)       log10(IC50)      1.45
5  Cn1cc(-c2[nH]c3cc(NC(=O)[C@H](N)C4CCCCC4)cc4c3c2C=NNC4=O)cn1       log10(IC50)      0.62
6  O=C(O)C(F)(F)F.O=C1CCCC2=C1C(c1ncccc1C(F)(F)F)N=C(Nc1nc3ccccc3o1)N2 (stereo not shown)       log10(IC50)      1.60

----------
Target: GST-CIB1 : F-scrambled peptide (Homo sapiens, UniProt Q99828)
Construct: made in house; host or cells: BL-21 plus RIL cells (E. coli)
Sequence (Q99828 1-191): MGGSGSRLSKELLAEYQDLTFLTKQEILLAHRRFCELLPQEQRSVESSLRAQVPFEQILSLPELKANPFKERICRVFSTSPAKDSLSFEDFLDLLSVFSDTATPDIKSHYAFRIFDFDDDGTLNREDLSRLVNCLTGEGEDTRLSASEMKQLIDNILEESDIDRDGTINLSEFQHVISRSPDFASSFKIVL
Assay: FP scrambled-peptide counter screen, 1536-well format
Type: binding
Settings: scrambled-peptide counterscreen, qHTS curve class
# COUNTERSCREEN Curve Class per entry
OBSERVATION TYPE: COUNTERSCREEN Curve Class

>>> print(df.to_string())
                                   molecule           observation_type  measured
0  N#Cc1cnc(NS(=O)(=O)c2ccc(NC(=O)Cc3ccc(F)c(Cl)c3)cc2)s1.O=C(O)C(F)(F)F  COUNTERSCREEN Curve Class         4
1  CC(C)NC(=S)N/N=C1\C(=O)Nc2ccccc21.O=C(O)C(F)(F)F  COUNTERSCREEN Curve Class      -1.2
2  Oc1ccc2ccccc2c1SSc1c(O)ccc2ccccc12 [NCGC00186047-02, IPA-3, reference compound]  COUNTERSCREEN Curve Class      -1.2
3  COc1ccccc1S(=O)(=O)Nc1cnccc1C(=O)Nc1nc(-c2ccccc2)cs1.O=C(O)C(F)(F)F  COUNTERSCREEN Curve Class         4
4  N[C@@H](Cc1ccc(Oc2cc(I)c(O)c(I)c2)c(I)c1)C(=O)O  COUNTERSCREEN Curve Class         4
5  CC(O)c1ccc(-c2ccc3ncnc(NCc4nccs4)c3c2)o1.O=C(O)C(F)(F)F (stereo not shown)  COUNTERSCREEN Curve Class         4
6  NS(=O)(=O)c1ccc(Cc2c(-c3cccc(-c4ccccc4F)c3)nn(-c3nc(C(=O)O)cs3)c2O)cc1.O=C(O)C(F)(F)F  COUNTERSCREEN Curve Class         4

----------
# Efficacy (%) per entry
Biological target: CIB1 and αIIb interaction (CIB1-GST : F-αIIb peptide) (Homo sapiens, UniProt Q99828)
Construct: made in house; host or cells: BL-21 plus RIL cells (E. coli)
Sequence (Q99828 1-191): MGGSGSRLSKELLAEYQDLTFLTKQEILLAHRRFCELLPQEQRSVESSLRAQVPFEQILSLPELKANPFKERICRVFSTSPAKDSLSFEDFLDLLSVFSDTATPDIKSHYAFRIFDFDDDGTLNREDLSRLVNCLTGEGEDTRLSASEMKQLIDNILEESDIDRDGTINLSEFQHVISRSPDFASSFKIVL
Assay: FP assay, 1536-well qHTS format (primary and confirmatory screen)
Format: binding
Settings: qHTS primary screen of LOPAC/NPACT libraries; negative = inhibition
OBSERVATION TYPE: Efficacy (%)

>>> print(df.to_string())
                                    molecule  observation_type  unit_descriptor  measured
 0  O=C(O)/C(=C/c1c(C(=O)O)[nH]c2cc(Cl)cc(Cl)c12)c1ccccc1      Efficacy (%)                %       -29
 1                  O=c1oc(Cl)c(Cl)c2ccccc12      Efficacy (%)                %       -37
 2                    N#CSc1cc(SC#N)c(N)nc1N      Efficacy (%)                %       -31
 3  C=C1CCC2C(C)(COC(C)=O)CCCC2(C)C1CCC(C)CC(=O)O (centres unmarked)      Efficacy (%)                %       -20
 4  CCCCc1ncc(/C=C(\Cc2cccs2)C(=O)O)n1Cc1ccc(C(=O)O)cc1.CS(=O)(=O)O      Efficacy (%)                %        -9
 5  O=C1c2c(O)cc(O)cc2OC(c2ccc(O)c(O)c2)C1O (centres unmarked)      Efficacy (%)                %       -14
 6  Cc1cc(OCCCS(C)(=O)=O)cc(C)c1-c1cccc(COc2ccc(-c3cc(=O)[nH][s+]3[O-])cc2)c1 (centres unmarked)      Efficacy (%)                %       -27
 7  O=C(O)CCc1ccc(NCc2cccc3c2CCCN3CCOc2ccccc2)cc1F      Efficacy (%)                %       -32
 8    Clc1ccccc1C(c1ccccc1)(c1ccccc1)n1ccnc1      Efficacy (%)                %       -14
 9  C[C@@]1(C2CCCC2)Cc2cc(OCC(=O)O)c(Cl)c(Cl)c2C1=O      Efficacy (%)                %       -28
10  C=CC(=O)Nc1ccc(CN2C(=O)N(c3cc(OC)cc(OC)c3)Cc3cnc(Nc4ccc(N5CCN(C)CC5)cc4)nc32)cc1      Efficacy (%)                %       -26
11  CCOc1ccc(Cc2nc(-c3c(C)nc4ccccn34)cs2)cc1      Efficacy (%)                %       -29
12  C=CCc1ccccc1OCC(O)CN[C@]1(C)CCC[C@H](C(C)(C)NC(=O)CBr)C1 (some centres unmarked)      Efficacy (%)                %       -35
13  O=C(O)/C=C/c1ccc(-c2ccc(O)c(C34CC5CC(CC(C5)C3)C4)c2)cc1      Efficacy (%)                %       -26
14  CS(=O)(=O)O.CSc1ccc2c(c1)C(N1CCN(C)CC1)Cc1ccccc1S2 (centres unmarked)      Efficacy (%)                %       -28
15  Cl.O=C(CCCCCN1CCN(c2ccccc2-c2ccccc2)CC1)NC1CCCc2ccccc21 (centres unmarked)      Efficacy (%)                %       -13
16  CCOC(=O)C1=C(C)NC(C)=C(C(=O)OC)C1c1cccc(Cl)c1Cl (centres unmarked)      Efficacy (%)                %       -26
